B1: ANKRD9 (parent)
chain: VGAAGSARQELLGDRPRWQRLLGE

variants of: B1; experiment: protein stability index of a GFP-peptide fusion (GPS, HEK-293T) (PSI 1-6); higher = more stable; details: c terminus: a fixed tail appended;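 also: lentivirally expressed fusions sorted by FACS into six bins by GFP to DsRed ratio, PSI derived from sequencing read proportions per bin multiplied by bin number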
I'd be grateful if you could share measured protein stability index for these entries.
One number for each entry.

{"columns": ["mutation_name", "readout_kind", "endpoint_value"],
 "data": [
  ["P16W", "protein stability index", 1.84]
]}

Hi! Can you tell me protein stability index for each of these variants?
1. R8H
2. Q9C
3. L11H
4. G23A
5. A7L
6. L11M

**Result**
1: 3.39; 2: 2.56; 3: 2.85; 4: 3.1; 5: 4.03; 6: 3.77
